Each recorded value in this set is attributed to patent US7064139B2.

Consider the following compounds and their measured Antiviral EC50 (ug/ml) Davis strain CMV readings.
test system: Davis strain CMV; assay: Reduction of CMV-induced cytopathicity in HEL cells; format: cell-based, human cytomegalovirus (HCMV); details: HEL cells, virus-induced cytopathicity after seven days
Lab book: enter the figure in µg/mL, no units written.

Solved cases below.
CC(C)c1ccc(C(C)C)c(C[S+]([O-])c2cccc[n+]2[O-])c1 (stereo not shown) : 4.1
CC(C)c1cc(CS(=O)(=O)c2cccc[n+]2[O-])c(C(C)C)cc1Br : 3.7
Cc1cc(CS(=O)(=O)c2cccc[n+]2[O-])c(C)cc1CS(=O)(=O)c1cccc[n+]1[O-] : 16.0
O=[N+]([O-])c1ccc[n+]([O-])c1SCc1ccccc1 : 40.0
Cc1ccc(CS(=O)(=O)c2cccc[n+]2[O-])cc1 : 29.0
Cc1ccc[n+]([O-])c1SCc1c(Cl)cccc1Cl : 28.0
Cc1ccc[n+]([O-])c1S(=O)(=O)C(C)c1ccccc1Cl (stereo not shown) : 12.5
O=S(=O)(c1cccc[n+]1[O-])C(Cl)c1ccccc1 (stereo not shown) : 23.0
N#CC(=Cc1ccccc1)Sc1cccc[n+]1[O-] : 3.6
COc1ccc(C(c2ccccc2)S(=O)(=O)c2cccc[n+]2[O-])cc1OC (stereo not shown) : 14.0

Task: Tell us which Antiviral EC50 (ug/ml) Davis strain CMV value is on record for "CCC(C)(C)c1ccc(CS(=O)(=O)c2cccc[n+]2[O-])cc1"
Output: 1.5

Task: Dear colleague, please send me the reported Antiviral EC50 (ug/ml) Davis strain CMV for "O=S(=O)(Cc1ccc(Cl)cc1)c1cccc[n+]1[O-]" when you can.
Output: 20.0
